These entries and their values trace back to paper PMC9295256.

- ASSAYED_TARGET: recombinant rat Nln (Rattus norvegicus)
- Sequence (P42676 38-704): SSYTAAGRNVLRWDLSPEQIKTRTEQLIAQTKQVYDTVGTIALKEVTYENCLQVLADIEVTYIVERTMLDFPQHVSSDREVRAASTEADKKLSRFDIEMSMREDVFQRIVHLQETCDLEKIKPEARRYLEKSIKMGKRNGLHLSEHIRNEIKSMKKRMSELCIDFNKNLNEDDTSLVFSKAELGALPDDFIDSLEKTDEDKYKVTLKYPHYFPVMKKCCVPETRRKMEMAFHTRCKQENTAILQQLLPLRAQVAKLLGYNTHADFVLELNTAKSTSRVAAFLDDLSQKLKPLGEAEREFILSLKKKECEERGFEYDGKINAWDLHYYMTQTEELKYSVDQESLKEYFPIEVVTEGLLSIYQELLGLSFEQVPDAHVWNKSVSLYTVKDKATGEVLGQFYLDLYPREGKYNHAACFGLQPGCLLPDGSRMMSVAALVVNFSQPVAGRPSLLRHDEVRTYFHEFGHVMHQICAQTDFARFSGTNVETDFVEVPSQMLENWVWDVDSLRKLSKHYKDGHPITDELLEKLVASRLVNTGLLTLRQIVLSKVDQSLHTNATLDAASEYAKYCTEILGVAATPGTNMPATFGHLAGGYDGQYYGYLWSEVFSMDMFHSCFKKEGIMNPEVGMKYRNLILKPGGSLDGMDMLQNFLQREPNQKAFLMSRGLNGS
- TEST_DETAILS: Nln activation, continuous quenched fluorescence substrate
- Type: biochemical
READOUT_KIND: Amax, maximum % activation achieved (95% CI)

Prompt: I'm curious: which Amax, maximum % activation achieved (95% CI) was measured for `N[C@@H](Cc1c[nH]cn1)C(=O)NCCc1ccc([N+](=O)[O-])cc1` tested on recombinant rat Nln (Rattus norvegicus)?
Response: 282.4 (266.5 to 299.5) %

Prompt: Test system recombinant rat Nln (Rattus norvegicus); read-out Amax, maximum % activation achieved (95% CI); what value for `N[C@H](Cc1c[nH]cn1)C(=O)NCCc1ccc(-c2ccccc2)cc1` ?
Response: 269.7 (256.8 to 283.4) %

Prompt: Write down the reported Amax, maximum % activation achieved (95% CI) of `N[C@@H](Cc1c[nH]cn1)C(=O)N[C@@H](Cc1c[nH]cn1)C(=O)O` , test system: recombinant rat Nln (Rattus norvegicus).
Response: 498.1 (481 to 516.5) %

Prompt: Field: Amax, maximum % activation achieved (95% CI) (recombinant rat Nln (Rattus norvegicus)). Entry: `N[C@@H](Cc1c[nH]cn1)C(=O)NCc1ccc(OC(F)(F)F)cc1`
Response: 310 (287.2 to 336.1) %

----------
- ASSAYED_TARGET: recombinant rat Nln (Rattus norvegicus)
- TEST_DETAILS: Nln activation, continuous quenched fluorescence substrate
- Assay type: biochemical
- CONDITIONS_USED: 100% = normal enzyme turnover; mean of n = 4, 95% CI in parentheses
Would you mind telling me the reported Amax, maximum % activation achieved (95% CI) of each entry?

Prompt: Tell me reported Amax, maximum % activation achieved (95% CI) for `COc1ccc(CCNC(=O)[C@@H](N)Cc2c[nH]cn2)cc1` , tested with recombinant rat Nln (Rattus norvegicus).
Response: 339.4 (314.2 to 369.3) %

Prompt: Short answer please: Amax, maximum % activation achieved (95% CI), recombinant rat Nln (Rattus norvegicus), entry `COc1cccc(CCNC(=O)[C@H](N)Cc2c[nH]cn2)c1`
Response: 255.3 (230.5 to 284.8) %

Prompt: Form: Entry = N[C@@H](Cc1c[nH]cn1)C(=O)NCc1ccc2ccccc2c1 [Compound 10a] | System = recombinant rat Nln (Rattus norvegicus) | Amax, maximum % activation achieved (95% CI) = ____
Response: 210.9 (191.7 to 231.9) %

Prompt: Which Amax, maximum % activation achieved (95% CI) is reported with recombinant rat Nln (Rattus norvegicus) for this entry: N[C@H](Cc1c[nH]cn1)C(=O)Nc1cccc2cccnc12 [Compound 11b] ?
Response: 288.3 (274.3 to 303.3) %

Prompt: Query Amax, maximum % activation achieved (95% CI) on recombinant rat Nln (Rattus norvegicus) for `N[C@H](Cc1c[nH]cn1)C(=O)NCCCCc1ccccc1`
Response: 233.8 (215.9 to 254.8) %

Prompt: Give Amax, maximum % activation achieved (95% CI) (recombinant rat Nln (Rattus norvegicus)) of the following compound: `N[C@H](Cc1c[nH]cn1)C(=O)NCCCc1ccccc1`
Response: 281.8 (269.9 to 294.5) %

Prompt: What is its Amax, maximum % activation achieved (95% CI) for recombinant rat Nln (Rattus norvegicus)? Entry: N[C@H](Cc1c[nH]cn1)C(=O)NCc1ccc2ccccc2c1 [Compound 10b]
Response: 197.5 (184.9 to 214.8) %

Prompt: For the record NC(Cc1c[nH]cn1)C(=O)NCCc1c[nH]c2ccccc12 (racemic) [(rac)-9a] , what value of Amax, maximum % activation achieved (95% CI) is listed for recombinant rat Nln (Rattus norvegicus)?
Response: 197 (177.5 to 222.8) %

Prompt: Lookup: Amax, maximum % activation achieved (95% CI) / recombinant rat Nln (Rattus norvegicus) / `N[C@H](Cc1c[nH]cn1)C(=O)NCCc1ccccc1`
Response: 294.6 (278.0 to 313) %

----------
- ASSAYED_TARGET: recombinant rat Nln (Rattus norvegicus)
- TEST_DETAILS: Nln activation, continuous quenched fluorescence substrate
- Assay type: biochemical
READOUT_KIND: Amax, maximum % activation achieved (95% CI)

Prompt: Look up Amax, maximum % activation achieved (95% CI) for this compound: N[C@@H](Cc1c[nH]cn1)C(=O)NCCc1ccc(C(F)(F)F)cc1 [Compound 4k]
Response: 299.4 (283.9 to 316.2) %

Prompt: # Amax, maximum % activation achieved (95% CI) lookup, item COc1cccc(CNC(=O)[C@H](N)Cc2cnc[nH]2)c1 [Compound 5g]
Response: 477.1 (444 to 516) %

Prompt: GET /values?readout=Amax, maximum % activation achieved (95% CI)&item= N[C@H](Cc1c[nH]cn1)C(=O)NCc1ccc(F)cc1 [Compound 5o]
Response: 320.5 (299.7 to 343.9) %

Prompt: Reported Amax, maximum % activation achieved (95% CI), compound N[C@H](Cc1c[nH]cn1)C(=O)NCc1ccc(C(F)(F)F)cc1 [Compound 5i] : ____
Response: 319.1 (296.3 to 344.3) %

Prompt: Record request: Amax, maximum % activation achieved (95% CI) value, item N[C@@H](Cc1c[nH]cn1)C(=O)NCc1ccc(SC(F)(F)F)cc1 [Compound 5r]
Response: 287.5 (277.4 to 298.4) %
